This collection of values is drawn from patent US11427783B2.

# MEASUREMENT_DESCRIPTION: Log P (n-octanol/water) of perfuming compounds
# CONDITIONS_USED: n-octanol/water; perfuming compounds having a fruity note (Table 6)
Structures can show the parent of a compound that is named as a salt.
OBSERVATION_TYPE: Log P (n-octanol/water)
Number only, no unit.

## Input I have this compound here, CCCC(=O)OCC [ETHYL BUTANOATE] , and I need its recorded Log P (n-octanol/water).
## Output 2.03

## Input Also CCOC(=O)C(C)CC (racemic) [(+−)-ethyl 2-methylbutanoate] , if possible.
## Output 2.58

## Input Also C/C=C(\C)C(=O)OCCCCCC [hexyl (2E)-2-methyl-2-butenoate] , if possible.
## Output 4.80

## Input Also CC(C)=CCCC(C)C=O (racemic) , if possible.
## Output 3.15

## Input Also CCCCCCOC(C)=O [HEXYL ACETATE] , if possible.
## Output 3.09

## Input Also C=C(C)CC(C(C)=O)C(=O)OCC (racemic) , if possible.
## Output 2.15

## Input Also CCCCCC(=O)OC [METHYL HEXANOATE] , if possible.
## Output 2.65

## Input Also CC(=O)OCC=C(C)C [3-methyl-2-buten-1-yl acetate] , if possible.
## Output 2.19

## Input Also COCC(C)Cc1ccccc1 (racemic) [(+−)-(3-methoxy-2-methylpropyl)benzene] , if possible.
## Output 3.57

## Input Also CCC/C=C/C=O [(2E)-2-HEXENAL] , if possible.
## Output 1.62

## Input Also CCCC(C)=CCOC(C)=O (mixture of isomers) , if possible.
## Output 3.11

## Input Also CC1CC(C)(c2ccccc2)CO1 (racemic) , if possible.
## Output 3.02

## Input Also CC/C=C\CCOC(=O)OC [(3Z)-hex-3-en-1-yl methyl carbonate] , if possible.
## Output 2.97

## Input Also CCCC(S)CCOC(C)=O (racemic) [(+−)-3-mercaptohexyl acetate] , if possible.
## Output 2.64

## Input Also O=COCCc1ccccc1 [2-PHENYLETHYL FORMATE] , if possible.
## Output 1.90

## Input Also CC1(C)[C@@H]2CC[C@@]1(C)C(=O)C2 , if possible.
## Output 2.50

## Input Also CCCCCC(=O)OCC [ETHYL HEXANOATE] , if possible.
## Output 3.12

## Input Also C=CC(C)(CCC=C(C)C)OC(C)=O (racemic) , if possible.
## Output 4.04

## Input Also CC/C=C\CCOC(=O)C/C=C\CC [(3Z)-3-hexen-1-yl (3Z)-3-hexenoate] , if possible.
## Output 4.22

## Input Also CCCCCC/C=C/C(=O)OC [methyl (2E)-2-nonenoate] , if possible.
## Output 4.05

## Input Also CCCCCCOC(=O)C(C)C [hexyl 2-methylpropanoate] , if possible.
## Output 4.31

## Input Also CC/C=C\CCOC(=O)CCC [(3Z)-3-hexen-1-yl butyrate] , if possible.
## Output 3.59

----------
# MEASUREMENT_DESCRIPTION: Volatility of perfuming compounds in air
# Type: physicochemical
# CONDITIONS_USED: Table 9, perfuming compounds having a gourmand note
Kindly state Volatility (μg/l air) for each of the entries shown.
Number in μg/l air, nothing else.

## Input I have this compound here, O=Cc1ccc2c(c1)OCO2 [benzo[d][1,3]dioxole-5-carbaldehyde] , and I need its recorded Volatility (μg/l air).
## Output 61.82

## Input Also COc1cc(C=O)ccc1O [4-hydroxy-3-methoxybenzaldehyde] , if possible.
## Output 4.24

## Input Also COc1cc(C=O)ccc1OC(=O)C(C)C , if possible.
## Output 1.01

## Input Also CCCCCCC1CCC(=O)O1 (racemic) [(+−)-4-DECANOLIDE] , if possible.
## Output 10.49

## Input Also COc1ccc(CCC(C)=O)cc1 , if possible.
## Output 5.58
